Each entry below carries its reported inhibition.
- assay.system: Casein kinase I isoform alpha (Homo sapiens) (UniProt P48729)
- Sequence (P48729 2-337 limits assumed): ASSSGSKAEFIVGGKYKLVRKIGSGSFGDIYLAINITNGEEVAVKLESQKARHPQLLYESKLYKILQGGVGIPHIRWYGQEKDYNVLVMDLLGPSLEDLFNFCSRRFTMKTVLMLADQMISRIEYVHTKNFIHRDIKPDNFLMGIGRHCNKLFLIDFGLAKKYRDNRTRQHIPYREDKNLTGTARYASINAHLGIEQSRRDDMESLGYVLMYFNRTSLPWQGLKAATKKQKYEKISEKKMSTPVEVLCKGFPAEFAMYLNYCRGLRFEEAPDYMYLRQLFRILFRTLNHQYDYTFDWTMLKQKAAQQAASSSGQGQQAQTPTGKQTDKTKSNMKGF
- run.description: Inhibition of CK1alpha in human PC3 cell lysates at 10 uM using desthiobiotin-tagged ATP probe AX9989 followed by trypsinization by LC/MS analysis
- details: PC-3

Some molecules with known inhibition results, for comparison:
[[record]]
smiles = "O=C(NC1(c2ccccc2)CC1)c1ccc2nc(N[C@H]3CC[C@H](O)CC3)c3nccn3c2c1"
recorded_measurement = "< 35%"

[[record]]
smiles = "NC(=O)c1ccc2nc(N[C@H]3CC[C@H](O)CC3)c3nccn3c2c1"
recorded_measurement = "69%"

[[record]]
smiles = "CC(C)(NC(=O)c1ccc2nc(N[C@H]3CC[C@H](O)CC3)c3nccn3c2c1)c1ccccc1"
recorded_measurement = "< 35%"

[[record]]
smiles = "O=C(O)c1ccc2nc(N[C@H]3CC[C@H](O)CC3)c3nccn3c2c1"
recorded_measurement = "57.1%"


Given `CCC[C@@H](NC(=O)c1ccc2nc(N[C@H]3CC[C@H](O)CC3)c3nccn3c2c1)c1ccccc1` , state its recorded inhibition.
< 35%

Given `C[C@H](NC(=O)c1ccc2nc(N[C@H]3CC[C@H](O)CC3)c3nccn3c2c1)c1ccccc1` , state its recorded inhibition.
< 35%

Given `C[C@@H](NC(=O)c1ccc2nc(N[C@H]3CC[C@H](O)CC3)c3nccn3c2c1)c1ccccc1` , state its recorded inhibition.
< 35%

Given `O=C(NC1(Cc2ccc(F)cc2)CC1)c1ccc2nc(N[C@H]3CC[C@H](O)CC3)c3nccn3c2c1` , state its recorded inhibition.
< 35%

Given `CC[C@@H](NC(=O)c1ccc2nc(N[C@H]3CC[C@H](O)CC3)c3nccn3c2c1)c1ccccc1` , state its recorded inhibition.
< 35%

====

- assay.system: Cyclin-dependent kinase 16 (Homo sapiens) (UniProt Q00536)
- Sequence (Q00536 whole entry): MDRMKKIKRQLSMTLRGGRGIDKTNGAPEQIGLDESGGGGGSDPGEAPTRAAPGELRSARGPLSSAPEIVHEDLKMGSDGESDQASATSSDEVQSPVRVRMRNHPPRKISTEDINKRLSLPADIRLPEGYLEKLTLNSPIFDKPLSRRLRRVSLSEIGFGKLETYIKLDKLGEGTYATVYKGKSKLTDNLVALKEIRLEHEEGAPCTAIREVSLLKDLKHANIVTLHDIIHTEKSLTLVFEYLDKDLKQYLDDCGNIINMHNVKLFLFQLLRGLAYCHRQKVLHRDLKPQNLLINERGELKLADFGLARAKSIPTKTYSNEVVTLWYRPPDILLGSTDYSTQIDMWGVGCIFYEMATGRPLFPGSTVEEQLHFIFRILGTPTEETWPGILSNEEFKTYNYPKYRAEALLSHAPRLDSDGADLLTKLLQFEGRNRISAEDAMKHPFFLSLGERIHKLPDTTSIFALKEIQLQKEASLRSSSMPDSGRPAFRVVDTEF
- run.description: Inhibition of PCTAIRE1 in human PC3 cell lysates at 10 uM using desthiobiotin-tagged ATP probe AX9989 followed by trypsinization by LC/MS analysis
- details: PC-3
value.type: inhibition

Given `O=C(NC1(c2ccc(F)cc2)CC1)c1ccc2nc(N[C@H]3CC[C@H](O)CC3)c3nccn3c2c1` , state its recorded inhibition.
< 35%

Given `O=C(O)c1ccc2nc(N[C@H]3CC[C@H](O)CC3)c3nccn3c2c1` , state its recorded inhibition.
71.1%

====

- assay.system: Serine/threonine-protein kinase TAO2 (Homo sapiens)
- run.description: Inhibition of TAO2 in human PC3 cell lysates at 10 uM using desthiobiotin-tagged ATP probe AX9989 followed by trypsinization by LC/MS analysis
- details: PC-3
value.type: inhibition

Some compounds with known inhibition results, for comparison:
[[record]]
smiles = "O=C(N[C@H](CO)c1ccccc1)c1ccc2nc(N[C@H]3CC[C@H](O)CC3)c3nccn3c2c1"
recorded_measurement = "< 35%"

[[record]]
smiles = "C[C@H](NC(=O)c1ccc2nc(N[C@H]3CC[C@H](O)CC3)c3nccn3c2c1)c1ccccc1"
recorded_measurement = "< 35%"


Any idea what inhibition came out for `O=C(NC1(c2ccccc2)CC1)c1ccc2nc(N[C@H]3CC[C@H](O)CC3)c3nccn3c2c1` on Serine/threonine-protein kinase TAO2 (Homo sapiens)?
< 35%

====

- assay.system: UniProtKB Q9UBF8
- Sequence (Q9UBF8 2-816 limits assumed): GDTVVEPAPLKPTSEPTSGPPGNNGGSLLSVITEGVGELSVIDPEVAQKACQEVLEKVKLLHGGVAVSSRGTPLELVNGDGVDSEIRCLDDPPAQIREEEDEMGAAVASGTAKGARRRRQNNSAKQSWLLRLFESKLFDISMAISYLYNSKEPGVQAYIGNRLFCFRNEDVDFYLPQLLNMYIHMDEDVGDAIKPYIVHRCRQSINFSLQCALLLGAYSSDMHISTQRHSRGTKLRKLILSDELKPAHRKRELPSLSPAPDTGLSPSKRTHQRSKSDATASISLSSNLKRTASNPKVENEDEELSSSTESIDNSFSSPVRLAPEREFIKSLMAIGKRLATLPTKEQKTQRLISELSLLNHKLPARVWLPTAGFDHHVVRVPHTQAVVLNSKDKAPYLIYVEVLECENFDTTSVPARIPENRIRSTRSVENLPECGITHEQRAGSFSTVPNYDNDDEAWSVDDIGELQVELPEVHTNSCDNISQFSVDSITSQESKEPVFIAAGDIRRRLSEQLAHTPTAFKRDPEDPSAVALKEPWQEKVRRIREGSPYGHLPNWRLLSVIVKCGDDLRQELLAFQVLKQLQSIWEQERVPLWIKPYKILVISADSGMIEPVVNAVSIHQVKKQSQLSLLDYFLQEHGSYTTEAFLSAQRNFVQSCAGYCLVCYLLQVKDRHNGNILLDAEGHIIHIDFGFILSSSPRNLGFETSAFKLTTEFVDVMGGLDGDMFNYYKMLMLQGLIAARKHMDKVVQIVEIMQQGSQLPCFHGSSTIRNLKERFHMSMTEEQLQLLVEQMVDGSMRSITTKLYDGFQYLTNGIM
- run.description: Inhibition of PI4KB in human PC3 cell lysates at 30 uM using desthiobiotin-tagged ATP probe AX9989 followed by trypsinization by LC/MS analysis
- details: PC-3
value.type: inhibition (%)

[[record]]
smiles = "O[C@H]1CC[C@H](Nc2nc3ccccc3n3ccnc23)CC1"
assay_system = "UniProtKB Q9UBF8"
value_type = "inhibition"
recorded_measurement = 90.8

[[record]]
smiles = "c1ccc2c(c1)nc(NC1CCCCC1)c1nccn12"
assay_system = "UniProtKB Q9UBF8"
value_type = "inhibition"
recorded_measurement = 55.9

[[record]]
smiles = "c1ccc(CCNc2nc3ccccc3n3ccnc23)cc1"
assay_system = "UniProtKB Q9UBF8"
value_type = "inhibition"
recorded_measurement = 59.9

[[record]]
smiles = "c1ccc(CNc2nc3ccccc3n3ccnc23)cc1"
assay_system = "UniProtKB Q9UBF8"
value_type = "inhibition"
recorded_measurement = 66.5

